Provide the reported Kd of each item.
Field: numeric (µM). Do not append units.

Notebook: pull reported Kd for cytochrome P450 OleT (Jeotgalicoccus sp. ATCC 8456), entry `CCCCCCCCCCCC(=O)O`
2.8

Notebook: pull reported Kd for cytochrome P450 OleT (Jeotgalicoccus sp. ATCC 8456), entry `CCCCCCCCCC(=O)O`
25

* * *

Provide the reported pKd of each item.
Target: cytochrome P450 OleT (Jeotgalicoccus sp. ATCC 8456)
Details: 5 μM OleT, 200 mM KPi pH 7.5, 200 mM NaCl; absorbance changes at 392 and 417 nm
The meaning of pKd here: minus log10 of the concentration in molar units.

Endpoint output: pKd of `CCCCCCCC(=O)O` . Value?
3.87

Endpoint output: pKd of `CCCCCC(=O)O` . Value?
3.79

* * *

Provide the reported maximal high-spin conversion of each item.
Biological target: cytochrome P450 OleT (Jeotgalicoccus sp. ATCC 8456, UniProt E9NSU2)
Conditions: UV-vis titration, low- to high-spin conversion
Field: numeric (%). Do not append units.

Notebook: pull reported maximal high-spin conversion for cytochrome P450 OleT (Jeotgalicoccus sp. ATCC 8456, UniProt E9NSU2), entry `CCCCCC(=O)O`
19

Notebook: pull reported maximal high-spin conversion for cytochrome P450 OleT (Jeotgalicoccus sp. ATCC 8456, UniProt E9NSU2), entry `CCCCCCCC(=O)O`
25

Notebook: pull reported maximal high-spin conversion for cytochrome P450 OleT (Jeotgalicoccus sp. ATCC 8456, UniProt E9NSU2), entry `CCCCCCCCCC(=O)O`
36

Notebook: pull reported maximal high-spin conversion for cytochrome P450 OleT (Jeotgalicoccus sp. ATCC 8456, UniProt E9NSU2), entry `CCCCCCCCCCCC(=O)O`
61
